Molecular target: FLT3-D835H (Homo sapiens, UniProt P36888, D835H)
Test: KINOMEscan kinase binding assay (Kd)
measured attribute: Kd (nM)
// return numeric value only (unit: nM, not printed)

Kd reading for CC(C)(C)c1cc(NC(=O)Nc2ccc(Oc3ncnc4[nH]ncc34)c(F)c2)no1 : 0.74

---

Target: FLT3-ITD (Homo sapiens, UniProt P36888, ITD)
Sequence (P36888 564-993): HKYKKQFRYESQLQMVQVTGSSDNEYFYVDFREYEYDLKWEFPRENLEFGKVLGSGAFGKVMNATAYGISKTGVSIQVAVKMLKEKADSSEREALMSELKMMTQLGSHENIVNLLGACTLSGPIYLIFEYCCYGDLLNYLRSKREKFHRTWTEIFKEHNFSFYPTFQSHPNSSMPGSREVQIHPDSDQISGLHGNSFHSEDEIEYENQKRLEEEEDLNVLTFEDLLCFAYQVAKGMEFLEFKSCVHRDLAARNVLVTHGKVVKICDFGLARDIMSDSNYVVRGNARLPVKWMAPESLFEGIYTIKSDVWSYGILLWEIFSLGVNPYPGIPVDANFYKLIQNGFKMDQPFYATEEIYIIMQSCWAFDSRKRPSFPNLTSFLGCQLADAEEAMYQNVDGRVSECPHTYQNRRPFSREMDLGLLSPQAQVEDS
Experiment: biochemical
measured attribute: Kd
Answer by giving the amount and then stating its unit.

Bench note, FLT3-ITD (Homo sapiens, UniProt P36888, ITD): entry CC(C)(C)c1cc(NC(=O)Nc2ccc(Oc3ncnc4[nH]ncc34)c(F)c2)no1 [SKLB-677] , its Kd = 1.3 nM
